Where do these numbers come from? They come from PubChem BioAssay (NCI).

Tested on: A549 NSCLC
Assay: NCI tumour cell line growth inhibition, 48 h

{"compound": "CCOC(=O)NN(C(=O)OCC)c1ccc(N=Nc2ccc(OC)cc2)n1C", "TGI": "63.5 µM"}
{"compound": "COc1ccc2[nH]c3cc4c(=O)c5cc(OC)ccc5[nH]c4cc3c(=O)c2c1", "TGI": "> 100 µM"}
{"compound": "C[C@@H](Nc1nc(N[C@H](C)C(F)(F)F)nc(-c2cccc(Cl)n2)n1)C(F)(F)F", "TGI": "> 100 µM"}
{"compound": "N/C(=N\\N=C\\c1cc2ccccc2s1)c1cnccn1", "TGI": "> 100 µM"}
{"compound": "c1ccc(-c2csc3c2-n2cccc2C3N2CCCC2)cc1 (stereo not given)", "TGI": "> 100 µM"}
